# Test system: HCT-116 colon
# experiment: NCI-60 one-dose screen, 48 h
# condition: 10 µM unless noted
The panel holds about 83,000 compounds, 20% with a hit somewhere; the sample as a whole holds those more often. The source made the active and inactive calls. Rule for the calls: active = growth percent below 10; inactive = the rest.
Outcomes you can answer with include only these: Yes for active, No for inactive

As a guide, the following entries are already answered.
In [3]: df
Out[3]:
                                   compound  grouplabel
0  CCCCC(CCCCCC(CCCC)C1NC(C)Cc2cc(OC)c(OC)cc21)C1NC(C)Cc2cc(OC)c(OC)cc21 (stereo unspecified)         Yes
1    CCN(CC)c1ccc(/C=C/C=C2\NC(=O)NC2=O)cc1          No
2  Cn1cc(-c2noc(-c3cn(C)c4ncc(F)cc34)n2)c2cc(Br)ccc21          No

For the next question, use this compound.
## Task Please indicate how the test categorized O=S(=O)(NCCCNc1nccc(-c2c(-c3cccc(F)c3)nc3occn23)n1)c1cccc2ccccc12 .
## Result No

* * *

# System: TK-10 renal
# experiment: NCI-60 one-dose screen, 48 h
# condition: 10 µM unless noted
# Protocol: Growth inhibition of the TK-10 human tumor cell line is measured as a screen for anti-cancer activity. Cells are grown in 96 well plates and exposed to the test compound for 48 hours. Compounds are tested at a single concentration, which is 10^-5 M for most compounds. The reported endpoint is percent growth (GI% or GIPRCNT), where numbers from 0 - 100% represent growth inhibition, and numbers from -100% - 0 represent cell death. For example, a value of 40 represents 60% growth inhibition. […]
About 83,000 compounds went through this panel and 20% of them were active in at least one assay; those are over-represented in the sample as a whole. Activity calls are given as the source filed them. How the source made its calls: active means growth percent below 10; inactive means the rest.
Outcomes you can answer with include only these: active, inactive

>>> print(df.to_string())
                                   compound  grouplabel
0  COc1ccc(C2CC(c3ccc4ccccc4c3)=NN2c2nc(O)c(C3=c4cc(OC)ccc4=NC3=O)s2)cc1 (stereo not given)      active
1  O=C(Nc1ccc(CN2CCOCC2)c(C(F)(F)F)c1)c1nc2ccc3[nH]ncc3c2c2c1CCCC2    inactive
2  O=C1Cc2c(sc3c(F)cccc23)C(c2ccccc2[N+](=O)[O-])N1 (stereo not given)    inactive
3       C1=C[C@H]2O[C@@H]1c1ccc3[nH]ccc3c12    inactive
4  C=CC1=C(C)C2=NC1=CC1=NC(=CC3=C(C)C4=C(O)C(C(=O)O)C(=C5NC(=C2)C(C)C5CCC(=O)O)C4=N3)C(CC)=C1C (stereo not given)    inactive

## Task Please indicate how the test categorized C/C=C/C1OC23CCCCC2C(C#N)(C(=N)O3)C1(C#N)C#N (stereo not given) .
## Result inactive

## Task Please indicate how the test categorized O=C(Nc1ccccc1)Nc1ccc(C(=O)/C=C/c2ccc(N3CCCC3)cc2)cc1 .
## Result inactive

## Task Please indicate how the test categorized CC(C)c1ccc(C(=O)Nc2nc3ccc(O)cc3s2)cc1 .
## Result inactive

## Task Please indicate how the test categorized CC(=O)Nc1ccc(C=Nc2ccc3ccccc3c2)cc1 .
## Result inactive

## Task Please indicate how the test categorized CC1=CCc2ccccc21 .
## Result inactive
